Parameter light induction: see the listing below.
- experimentDescription: inducers of V. cholerae light production, dose response, BH1578, luxS and cqsA deficient, dry powder (AID 651854)
- statedConditions: V. cholerae BH1578 lux reporter, luminescence, 6 h; at 35 µM (top of the series)
Reply numerically in %, unit not repeated.

Known light induction results, listed for orientation:
O=C(C[C@@H]1CC[C@@H]2[C@H](COC[C@H](O)CN2Cc2ccc(C(F)(F)F)cc2)O1)N1CCc2ccccc2C1 :: 0.313
CCCN(C)C[C@@H]1Oc2cc(C#Cc3cccc(OC)c3)ccc2S(=O)(=O)N([C@@H](C)CO)C[C@@H]1C :: -0.148
C[C@@H]1CN([C@@H](C)CO)S(=O)(=O)c2ccc(-c3ccncc3)cc2O[C@@H]1CN(C)S(=O)(=O)c1ccccc1F :: 0.546
CC(C)c1cccc(NC(=O)C[C@H]2CC[C@H]3[C@@H](COc4ccc(NC(=O)c5ccc(C#N)cc5)cc4C(=O)N3C)O2)c1 :: 0.322
COc1ccc(C#Cc2cnc3c(c2)C(=O)N([C@@H](C)CO)C[C@H](C)[C@H](CN(C)C(=O)CC2CC2)O3)cc1 :: 0
CN1C(=O)c2cc(NS(C)(=O)=O)ccc2OC[C@@H]2O[C@H](CC(=O)NCc3ccc(-c4ccccc4)cc3)CC[C@@H]21 :: 0.313

The value of light induction measured for the molecule `Cc1noc(C)c1NC(=O)N(C)C[C@@H]1Oc2ccc(NC(=O)CCC(F)(F)F)cc2C(=O)N([C@@H](C)CO)C[C@@H]1C` turned out to be 0.322

The value of light induction measured for the molecule `COc1ccc(-c2ccc([C@@H]3[C@H](C#N)N(C(=O)NC4CCCCC4)[C@H]3CO)cc2)cc1` turned out to be -0.497

The value of light induction measured for the molecule `Cc1ccc2cc3c(NC(=O)c4ccccc4)nn(C)c3nc2c1` turned out to be 0.503

----------
- experimentDescription: inducers of V. cholerae light production, dose response, BH1578, luxS and cqsA deficient, dry powder (AID 651854)
- statedConditions: V. cholerae BH1578 lux reporter, luminescence, 6 h; at 35 µM (top of the series)
attributeMeasured: light induction (%)
Reply numerically in %, unit not repeated.

CCCC#Cc1cnc2c(c1)C(=O)N([C@H](C)CO)C[C@H](C)[C@H](CN(C)C(=O)CCN1CCCCC1)O2 :: -0.148
C[C@H]1CN([C@@H](C)CO)C(=O)Cc2cc(NS(C)(=O)=O)ccc2O[C@H]1CN(C)Cc1ccc(-c2ccccc2)cc1 :: -0.148
COc1ccc(CNC(=O)N(C)C[C@@H]2OCc3ccccc3-c3c(n(C)c4ccccc34)C(=O)N([C@@H](C)CO)C[C@H]2C)cc1 :: 1.27

The value of light induction measured for the compound `CO[C@H]1CN(C)C(=O)c2cccc(C#N)c2OCC[C@@H]2CC[C@@H](OC)[C@@H](CN(C)C(=O)[C@H]1C)O2` turned out to be 5.31

----------
- experimentDescription: inducers of V. cholerae light production, dose response, BH1578, luxS and cqsA deficient, dry powder (AID 651854)
- statedConditions: V. cholerae BH1578 lux reporter, luminescence, 6 h; at 35 µM (top of the series)
Parameter light induction: see the listing below.
Reply numerically in %, unit not repeated.

Known light induction results, listed for orientation:
O=[N+]([O-])c1ccc(N(CCO)CCO)c2c1no[n+]2[O-] :: 9.14
Cc1ccc2cc3c(NC(=O)c4ccccn4)nn(C)c3nc2c1 :: -0.663
C[C@H](CO)N1C[C@H](C)[C@H](CN(C)C(=O)Cc2ccncc2)Oc2cc(C3=CCCCC3)ccc2S1(=O)=O :: 0.158
Cn1nc(NC(=O)c2ccco2)c2c(F)cccc21 :: -0.824
CO[C@@H]1CN(C)C(=O)c2cc(NC(=O)C3CC3)ccc2OC[C@H](C)N(C(=O)NC(C)C)C[C@H]1C :: 1.05
O=C(N[C@@H]1C=C[C@H](CC(=O)N2CCCCC2)O[C@H]1CO)c1ccc2c(c1)OCO2 :: 0
CC=Cc1ccc2n(c1=O)C[C@@H]1[C@@H](CO)[C@H](C(=O)NCC)N(Cc3ccccc3Cl)[C@H]21 (mixture of isomers) :: 0.694

Then this compound:
The value of light induction measured for the compound `Cc1ccc2cc3c(NC(=O)c4ccco4)nn(CC(C)C)c3nc2c1` turned out to be 2.93

----------
- experimentDescription: inducers of V. cholerae light production, dose response, BH1578, luxS and cqsA deficient, dry powder (AID 651854)
- statedConditions: V. cholerae BH1578 lux reporter, luminescence, 6 h; at 35 µM (top of the series)
Parameter light induction: see the listing below.
Reply numerically in %, unit not repeated.

O=C(O)C[C@@H]1CC[C@H](NC(=O)c2ccncc2)[C@@H](CO)O1 :: 0.322
C[C@H](CO)N1C[C@H](C)[C@@H](CN(C)S(=O)(=O)c2ccccc2F)Oc2cc(-c3ccncc3)ccc2S1(=O)=O :: 0
COc1ccc(C#Cc2ccc3c(c2)O[C@H](CN(C)C(=O)CN2CCOCC2)[C@@H](C)CN([C@@H](C)CO)S3(=O)=O)cc1 :: 0
C[C@H]1CCCCO[C@H](CN(C)C(=O)c2ccccc2)[C@@H](C)CN([C@@H](C)CO)C(=O)c2cc(NC(=O)c3ccccc3)ccc2O1 :: -0.733

The value of light induction measured for the compound `C[C@H]1CN([C@@H](C)CO)C(=O)c2cc(NC(=O)CCC(F)(F)F)ccc2O[C@H]1CN(C)Cc1ccc(Cl)c(Cl)c1` turned out to be 1.05

The value of light induction measured for the compound `C[C@H](CO)N1C[C@H](C)[C@@H](CN(C)C(=O)NC2CCCCC2)OCc2ccccc2-c2c(n(C)c3ccccc23)C1=O` turned out to be 0

The measurements presented in this section are drawn from PubChem BioAssay AID651854.
